test system: NCI-H23 lung; assay: NCI tumour cell line growth inhibition, 48 h
Test Readout: TGI

> print(dat)
                                    molecule  test.readout    result
 1  CC(C)CCCC(C)[C@H]1CC[C@H]2n3c(nc4ccccc43)CCC[C@]12C (stereo partly specified)           TGI   34.4 µM
 2  CCOC(=O)C1=C(C)NC2=C(C(=O)N(c3ccccc3)C2c2ccccc2)C1c1ccccc1 (stereo unspecified)           TGI   33.7 µM
 3  C=CC(=O)N1C[C@@H]2CCOc3c(Cl)c(-c4c(O)cccc4F)c(F)c4ncnc(c34)N2C[C@H]1C           TGI   13.1 µM
 4         CSc1nc2nn(Cc3ccccc3)cc2c(=O)[nH]1           TGI  > 100 µM
 5  CCOC(=O)C1(C/C=C/CCl)CCCC1=O (stereo unspecified)           TGI   38.3 µM
 6  NC(CCOCCP(=O)(O)CCC1C=CC=CC1)C(=O)O (stereo unspecified)           TGI  > 100 µM
 7            CCCCN1C(=O)c2c(Br)sc(Br)c2C1=O           TGI  > 100 µM
 8                        CSc1nc(CO)c(CO)n1C           TGI  > 100 µM
 9  N/N=C(\c1nc2ccc([N+](=O)[O-])cc2[nH]c1=O)C(O)c1ccc(Cl)c(Cl)c1 (stereo unspecified)           TGI  > 100 µM
10  CCOC(=O)Cc1nnc2n(-c3ccccc3)c(=O)c3ccccc3n12           TGI  > 100 µM
11                        OCC[N+]12CCCN1CCC2           TGI  > 100 µM

###

system: SNB-75 CNS; experiment: NCI tumour cell line growth inhibition, 48 h
Test Readout: TGI

> print(dat)
                                    molecule  test.readout     result
 1  CC(NCc1c(O)ccc2ccc(=O)oc12)C(=O)O (stereo unspecified)           TGI   > 100 µM
 2          CC1(C)N=C(N)N=C(N)N1c1ccc(Cl)cc1           TGI   > 100 µM
 3  COc1ccc(N2C(=O)C3c4[nH]c5ccccc5c4C4CC(C)(C)CC(C)(C)C4C3C2=O)cc1 (stereo unspecified)           TGI    34.5 µM
 4         CSc1nc2nn(Cc3ccccc3)cc2c(=O)[nH]1           TGI   > 100 µM
 5  CSc1ccc2c(cc1=O)[C@@H](NC(=O)c1ccc(Cl)cc1)CCc1cc(O)c(O)c(O)c1-2           TGI   > 100 µM
 6  CCOC(=O)C(NC(C)=O)(Nc1ccc(S(N)(=O)=O)cc1)C(F)(F)F (stereo unspecified)           TGI   > 100 µM
 7  O=C(CSCC(=O)N/N=C/c1ccccc1)N/N=C\c1ccccc1           TGI   > 100 µM
 8  O=C(N/C(=C\c1cccc([N+](=O)[O-])c1)c1nc2ccccc2[nH]1)c1ccccc1           TGI   > 100 µM
 9  COC(=O)c1cc(=O)n(-c2ccc3nn(C)nc3c2)cc1C(=O)OC           TGI   > 100 µM
10  CC(=O)CC/C=C(\C)[C@H](O)[C@H](C)C(=O)O[C@H]1C[C@H](C)C=C2C=C[C@@]3(C)O[C@@H](O)CC(=O)[C@]3(C)[C@H]21           TGI    2.61 µM
11  Cn1cc(-c2nc(-c3c[nH]c4ncccc34)cs2)c2ccccc21           TGI   > 100 µM
12  COC1(C)C(=O)N2C1N(C(=O)OC(C)(C)C)CC2(C)C (stereo unspecified)           TGI   > 100 µM
13  CC(C)(c1ccccc1)c1cc(O)c(C(C)(C)c2ccccc2)cc1O           TGI    11.5 µM
14  C=C1C[C@@H]2O[C@H]3[C@H]4[C@@H](C[C@@H](C)[C@@H](OC(C)=O)[C@H]42)[C@@H](C)CO[C@@]3(C)[C@H](OC(=O)CCCCCCC)C[C@H]1O           TGI    32.6 µM
15  O=c1[nH]c(=O)n(C2CC(O)C(CO)O2)cc1C(F)(C(F)(F)F)C(F)(F)F (stereo unspecified)           TGI   > 100 µM
16  O=c1c2ccccc2c(/C=N\NC2=NCCN2)c2oc3ccccc3n12           TGI      42 µM
17                         COc1ccccc1C(=O)NO           TGI   > 100 µM
18  O=C(Oc1c(Cl)cc(C2(c3cc(Cl)c(OC(=O)c4ccccc4)c(Cl)c3)CCCCC2)cc1Cl)c1ccccc1           TGI    26.9 µM
19                                  c1ccncc1           TGI   > 100 µM
20  C=C1C(=O)O[C@H]2[C@H](OC(C)=O)[C@@H](C)CCCC3(C)OC3CCC3(CO3)[C@H](O)C[C@@H]12 (stereo partly specified)           TGI   > 100 µM
21  O=C1CC(c2ccccc2)Cc2nc3ccc(Br)cc3cc21 (stereo unspecified)           TGI  > 90.1 µM
22  Cn1c(=O)nc2n(-c3ccc(Cl)cc3)c3cc(Cl)ccc3nc-2c1=O           TGI    14.8 µM
23  C[Si](C)(C)c1ccc(-c2c3ccc(-c4cc(Br)cc(Br)c4)nc3nc3nc(-c4cc(Br)cc(Br)c4)ccc23)cc1           TGI   > 100 µM
24  CC1C(=O)CC(c2cccs2)N(N=O)C1c1cccs1 (stereo unspecified)           TGI    > 74 µM
25   O=C(C=P(c1ccccc1)(c1ccccc1)c1ccccc1)CCl           TGI    7.57 µM
26         O=C(CCc1ccccc1)NS(=O)(=O)c1ccccc1           TGI   > 100 µM
27  O=C(NCCCNCCN1C(=O)c2cccc3cc([N+](=O)[O-])cc(c23)C1=O)c1cc(-c2ccccc2)nc2ccccc12           TGI    14.1 µM
28  Cc1c(/C=N/NC(=S)Nc2ccc(Cl)cc2)c(=O)n(-c2ccccc2)n1C           TGI    35.8 µM
29  COc1cc(N2C(=O)[C@H](c3ccccc3)C2c2ccc(SC)cc2)cc(OC)c1OC (stereo partly specified)           TGI   > 100 µM
30  C=C(C)[C@@H]1CCC2=C[C@H](C/C(C)=C\C3=CC(C)=C(O3)[C@H]1O)OC2=O           TGI   > 100 µM
31  C#CC(=O)Nc1cccc2c1cc(C)n2-c1nc2c(c(NCc3ccccc3)n1)CCCC2           TGI   0.294 µM
32  CCC1C(C(=O)Nc2ccccc2C)=C(C)NC(C)=C1c1ccccc1C (stereo unspecified)           TGI   > 100 µM
33     CCCCCCn1c(SC)nc(COC(=O)NC)c1COC(=O)NC           TGI    27.8 µM
34  CC(=O)Nc1cccc(N2C(=O)/C(=C\c3cccc(Oc4ccccc4)c3)S(=O)(=O)C2c2ccccc2)c1 (stereo unspecified)           TGI   > 100 µM
35  CC(=O)Nc1ccc(-c2nnc(SCC(=O)Nc3cccc(Cl)c3)o2)cc1           TGI    71.9 µM
36                        C=CC(=O)NC(N)=NC#N           TGI     289 µM
37  O=[N+]([O-])c1cccc(-c2ncc3c(n2)-c2ccccc2C3)c1           TGI   > 100 µM
38  NC(=S)N/N=C1\c2ccccc2-c2c(F)c(F)c(F)c(F)c21           TGI    21.6 µM
39  COc1ccc(C2CC(c3ccc(Nc4ccnc5cc(Cl)ccc45)cc3)=NN2C=O)cc1 (stereo unspecified)           TGI   > 100 µM
40  O=[N+]([O-])c1ccc(N/N=C2/CC3=C2CCCCCCCCCC3)c([N+](=O)[O-])c1           TGI   > 100 µM
41  O=C(NCCC1CN(C(=O)OCc2ccccc2)c2ccccc21)OCc1ccccc1 (stereo unspecified)           TGI   > 100 µM
